system: SN12C renal; assay: NCI-60 one-dose screen, 48 h; details: 10 µM unless noted
About 83,000 compounds went through this panel and 20% of them were active in at least one assay; those are over-represented in the sample as a whole. Calls of active or inactive are those of the source. Rule for the calls: active = growth percent below 10; inactive = the rest.
Write down one outcome, taken from active, inactive

Answered examples (4):
COMPOUND	CAT
Cc1cc2nc(C(Cl)Cl)nc(-c3ccc(Cl)cc3)n2n1	inactive
O=C(CCCCCCCCC(=O)N/N=C\c1ccccc1O)N/N=C\c1ccccc1O	inactive
CC1=C2[C@@H](CC1)[C@]1(C)O[C@@](C3CC3)(C[C@H]1OC(=O)CO)[C@H]2OC(=O)/C=C/c1ccccc1	inactive
CCN1CCN(C(=O)[C@]23CC[C@@H](C)[C@H](C)[C@@H]2C2=CC[C@@H]4[C@@]5(C)CCC(=O)C(C)(C)[C@@H]5CC[C@@]4(C)[C@]2(C)CC3)CC1	active

// query Outcome? "CN(C)CCCn1c2c(c3ccc(N4CCNCC4)cc3c1=O)C(=O)c1ccccc1-2"
// result active

* * *

test system: CAKI-1 renal; test: NCI-60 one-dose screen, 48 h; conditions: 10 µM unless noted
The panel holds about 83,000 compounds, 20% with a hit somewhere; the sample as a whole holds those more often. Activity calls are given as the source filed them. The calls were made as follows: active = growth percent below 10; inactive = the rest.
Use one of these outcomes when replying: active, inactive

These recorded examples may help you get a feel for the data.
COMPOUND	CAT
O=C(CN1C(=O)S/C(=C\C(Cl)=C\c2ccccc2)C1=O)NC1C=CS(=O)(=O)C1 (centres undefined)	inactive
O=S(=O)(O)c1ccc(N=Nc2ccc(N=Nc3cccc4ccccc34)c(S(=O)(=O)O)c2)cc1	inactive
Cc1cc(N2CCN(CC(=O)Nc3ccc4c(ccn4Cc4ccccc4)c3)CC2)nc(N2CCCCCC2)n1	inactive
COc1cc2nc3cc([N+](=O)[O-])ccc3c(NCCNCC(C)(C)O)c2cc1OC	inactive

// query What outcome does the record of this test show for COc1nc(=O)n(C2C=CC(=O)O2)cc1F (centres undefined) ?
// result inactive

// query // outcome(item) with item = "Cc1ccc(S(=O)(=O)OC[C@@]2(C)CC[C@]3(C)CC[C@]4(C)C(=CC[C@@H]5[C@@]6(C)CCCNC(C)(C)[C@@H]6CC[C@]54C)[C@@H]3C2)cc1"
// result active

// query // param item: "COc1ccc(/C=C2\COc3ccc(O)c(O)c3C2=O)c(OC)c1OC" ; yields the recorded call
// result inactive

// query # lookup: test call for "CC/C=C\C/C=C\C[C@H](O)C/C=C1/C(=O)C=C[C@@H]1C/C=C\CCCC(=O)OC"
// result active

// query # lookup: test call for "O=C(CCCCCCCCC(=O)N/N=C\c1ccccc1O)N/N=C\c1ccccc1O"
// result active

// query Outcome logged for "C=C1C(=O)O[C@@H]2[C@H]3[C@H](COC(C)=O)[C@@H](OC(C)=O)C[C@H]3C(=C)[C@@H](O)C[C@@H]12" in this assay:
// result inactive

* * *

tested on: UACC-62 melanoma; assay: NCI-60 one-dose screen, 48 h; conditions: 10 µM unless noted
About 83,000 compounds went through this panel and 20% of them were active in at least one assay; those are over-represented in the sample as a whole. The source made the active and inactive calls. Rule for the calls: active = growth percent below 10; inactive = the rest.
Outcome field: choose from active, inactive

Solved entries:
COMPOUND	CAT
CCOC(=O)c1c(-c2ccc(C)cc2)c(C#N)c(=O)n(-c2cccc(C(F)(F)F)c2)c1N	inactive
CN(Cc1ccccc1)c1nc(Cl)c(C2CC(c3ccc4c(c3)OCO4)=NN2c2cc(Cl)cc(Cl)c2)s1 (stereo not given)	inactive
COc1cc(N=Nc2ccc(O)c3ncccc23)c2ncccc2c1	active

// query Given "CC/C=C\C/C=C\C[C@H](O)C/C=C1/C(=O)C=C[C@@H]1C/C=C\CCCC(=O)OC" , state the outcome it received in this test.
// result active

// query Tell me the recorded outcome of this test for "CCOC(=O)c1ccc(Nc2ncnc3c2cnn3-c2cccc(F)c2)cc1" .
// result inactive

Reference source for all entries: PubChem BioAssay (NCI)
